Experiment: RAM signaling pathway blockade in yeast – S. cerevisiae, Pdr1DBD-CYC8 efflux-inhibited sensitized strain, primary screen (AID 1298);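 note: 0% = DMSO untreated cells without growth and 100% = 10 µM 1-NA-PP1 full growth; higher means more yeast growth rescued from 5-FOA killing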
Settings: S. cerevisiae cbk1-as DSE1-URA3 strain, 5-FOA growth OD615, 2 d; at 50 µM; stronger effect = higher value
quantity_measured: RAM network inhibition (%)
Give bare numbers, in %.

// solved cases for RAM network inhibition follow
molecule	units_of_measure	RAM network inhibition
CCNC(=O)Cc1ccc(NS(=O)(=O)c2ccc(F)cc2)cc1	%	2.36
COCCNC(=O)CN1CCOc2ccccc21	%	3.11

// batch mode: one RAM network inhibition value per listed entry
1. COc1ccc(-c2cn3c(C)c(C(=O)N4CCN(c5ccccc5F)CC4)sc3n2)cc1
2. O=C(NCCN1CCOCC1)c1ccc2c(c1)N(Cc1ccc(F)cc1)C(=O)CS2
3. Cc1ccc(C(C(=O)NC2CCCC2)N2CCCCC2)cc1 (centres undefined)
4. C/C(=C\C(=O)c1ccc(C)cc1)Nc1cccc(O)c1

1: 18.2; 2: 0.11; 3: 5.61; 4: -0.26

Look at each molecule and report its RAM network inhibition.
1. CNc1nc(SCC(=O)OC)nc(N2CCOCC2)n1
2. COc1ccc(NC(=O)[C@H](CCS(C)(=O)=O)N2Cc3ccccc3C2=O)c(OC)c1
3. CCN1CCN(c2ncnc3c2sc(=S)n3-c2ccccc2)CC1
4. COC(=O)c1cc(OC)c(OC)cc1NC(=O)C1CCCO1 (centres undefined)

[3.47, 1.93, -0.06, 4.85]

Could you tell me RAM network inhibition for each of these molecules? They are listed below.
1. OC1CCN(c2c3c(nc4cc(-c5cccc(F)c5)nn24)CCCC3)CC1
2. CCCCn1c(CNC(=O)C(C)(C)C)nc2ccccc21
3. CCOC(=O)N1CCC(Nc2cc(C)nc3c(-c4ccccc4OC)c(C)nn23)CC1
4. COCC(C)NC(=O)NC1(C(F)(F)F)Oc2ccc(Cl)cc2O1 (centres undefined)
5. C=CCn1c(O)c(C2=c3ccccc3=NC2=O)sc1=Nc1ccc(O)cc1

1. 9.14
2. 5.15
3. 4.72
4. 4.1
5. 2.7

----------
Assay: Restrictive medium S. cerevisiae growth inhibition, OD615, pilot screen of yeast lifespan reduction project, restrictive growth control (AID 706);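 note: modified DeaD lifespan yeast strain shifted to restrictive glucose medium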
Conditions: OD615, 48 h, at 10 µM, stronger effect = higher value
quantity_measured: growth inhibition (%)
Give bare numbers, in %.

compound	growth inhibition / %
COc1ccc(CC(=O)Nc2c3c(nn2C(C)(C)C)CS(=O)C3)cc1 (stereo unspecified)	-4.57

Take each entry in turn and give its growth inhibition.
1. O=C(CSc1nnc(Cc2cc(=O)[nH]c(=O)[nH]2)n1-c1ccc(F)cc1)N1CCCCC1
2. CC(C)N(Cc1nc(-c2ccccc2)no1)C(=O)Cc1ccccc1
3. COc1cccc(NC=C2C(=O)OC3(CCCCC3)OC2=O)c1

1.35
-16.3
5.97

Would you mind listing growth inhibition for each of the following compounds?
1. CCN(CC)CCN=C1CCCc2ccccc2N1
2. CCc1ccccc1NC(=O)c1cc(C2CC2)on1
3. CCC(=O)N1C(C(=O)N2CCCC2)CSC1c1ccc(OC)cc1 (stereo unspecified)
4. COCCCNC(=O)CN(c1ccc(Cl)c(Cl)c1)S(C)(=O)=O
5. O=C(NCCN1CCN(C(=O)Nc2ccccc2)CC1)Nc1ccccc1
6. COc1ccc(OC)c2sc(NC(=O)c3ccc(Br)s3)nc12
7. Cc1ccc(CCNC(=O)CS(=O)Cc2nc(-c3cccc(C)c3)oc2C)cc1 (stereo unspecified)
8. COc1ccc(N=C2SC(C(=O)O)CC(=O)N2C)cc1 (stereo unspecified)

1. 5.53
2. 6.47
3. -12.3
4. -7.01
5. -32.9
6. -13
7. 2.34
8. 7.82

Please go through the list and note growth inhibition for each compound.
1. CCS(=O)(=O)N1CCN(Cc2nc3ccccc3c(=O)[nH]2)CC1
2. CCCC(=O)C1=C(SCC)CC(C)(C)C(C(=O)OC)C1=O (stereo unspecified)
3. Cc1ccc(S(=O)(=O)N2CCC(C(=O)N[C@@H](C)C(=O)NC3CCCCC3)CC2)cc1
4. COc1ccccc1N1CCN(C(=O)c2cc3c(=O)n(C)c4ccccc4c3n2C)CC1
5. CCOC(=O)CNC(=O)Cn1cnc2sc(C)c(S(=O)(=O)N3CCC(C)CC3)c2c1=O
6. CC(C)OCCCNC(=O)c1cc2c(=O)n(C)c3ccccc3c2n1C
7. COc1ccc(NC(=O)C2CCN(C(=O)c3ccccc3)CC2)c(OC)c1
8. Cc1cc(=O)[nH]c(SCc2cc(Cl)ccc2OC(F)F)n1

1: -14.4; 2: -21.5; 3: -17.1; 4: 3.62; 5: -1.62; 6: -0.705; 7: -0.9; 8: 15.1

----------
Experiment: inhibitors of the yeast RAM network, pilot screen, dse1pr::URA3 reporter, 5-FOA selection (AID 869);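 note: 0% = DMSO wells with no growth and 100% = 10 µM 1-NA-PP1 with full growth; RAM network block rescues cells from 5-FOA so hits raise OD615 growth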
Settings: S. cerevisiae dse1pr::URA3 5-FOA growth, OD615, 2 d; at 10 µM; stronger effect = higher value; strain carries analog-sensitive mutant Cbk1 kinase
quantity_measured: inhibition (%)
Numbers only, in %.

Field: example entries. Status: answers known.
compound	units_of_measure	inhibition
COc1ccc(S(=O)(=O)N2CCN(c3c(C)cccc3C)CC2)cc1OC	%	0.435
CCN(CC)S(=O)(=O)c1ccc(Cl)c(C(=O)NC)c1	%	0.985
COc1ccc(CC(=O)c2ccc(O)cc2O)cc1OC	%	1.26

Each compound below has a recorded value; state its inhibition.
1. O=C(CC(c1ccccc1)c1ccccc1)Nc1ncn[nH]1
2. COc1ccc(NC(=O)Cc2nc3ccccc3[nH]2)cc1
3. COc1ccc(C2N(c3cc(Cl)ccc3OC)C(=O)C3CCCN32)cc1OC (stereo unspecified)
4. COc1ccc(C(C#N)(CCC#N)CCC#N)cc1OC
5. O=C(NC12CC3CC(CC(C3)C1)C2)c1cccnc1
6. COc1ccc(Cl)cc1NC(=O)C1CSC(c2ccncc2)=N1 (stereo unspecified)
7. Cc1c(NC(=O)OCCSc2nc(N(C)C)nc(N(C)C)n2)sc(=S)n1C

1. -0.035
2. 0.695
3. 1.02
4. 1.13
5. 2.61
6. 0.41
7. 2.92

Reported inhibition, compound O=C(COC(=O)c1ccc(Br)c(S(=O)(=O)N2CCOCC2)c1)NCC1CCCO1 (stereo unspecified) : ____ 3.08

----------
Field: RAM network inhibition. Provide a value for each of the molecules that follow.
Test: RAM signaling pathway blockade in yeast – S. cerevisiae, Pdr1DBD-CYC8 efflux-inhibited sensitized strain, primary screen (AID 1298);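 note: 0% = DMSO untreated cells without growth and 100% = 10 µM 1-NA-PP1 full growth; higher means more yeast growth rescued from 5-FOA killing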
Conditions: S. cerevisiae cbk1-as DSE1-URA3 strain, 5-FOA growth OD615, 2 d; at 50 µM; stronger effect = higher value
Numbers only, in %.

molecule	RAM network inhibition / %
Cc1nc2sc(C(c3ccccc3)N3CCN(C)CC3)c(O)n2n1 (stereo not given)	2.45
CCOC(=O)C1CCN(C(c2ccc(OC)c(OC)c2)c2sc3nc(C)nn3c2O)CC1 (stereo not given)	-0.97
O=C1c2oc3ccc(Cl)cc3c(=O)c2C(c2ccco2)N1CCN1CCOCC1 (stereo not given)	-1.88
CCc1ccccc1NC(=O)c1cc(C2CC2)on1	3.34
COc1ccc(NC(=O)N(CCC(C)C)C(C)c2ccccn2)c(OC)c1 (stereo not given)	3.79

Need RAM network inhibition for each of these molecules.
1. NC(=O)NC1CCCc2c1[nH]c1ccc(Cl)cc21 (stereo not given)
2. COc1ccc(Cc2nc(-c3cccs3)no2)cc1OC
3. CN1CCN(CCCNC(=O)c2cn(C)c3ccc(S(=O)(=O)N(C)C)cc3c2=O)CC1

1. 0.26
2. 7.4
3. 5.1

// for each molecule in input: emit RAM network inhibition
1. COc1cccc(NC=C2C(=O)OC(C)(C)OC2=O)c1
2. COc1ccc(C(=O)Nc2cccc(C(C)=O)c2)cc1S(=O)(=O)N1CCOCC1
3. Cc1cc(C)n2c(SCC(=O)Nc3ccccc3)nnc2n1
4. COc1ccc2oc(-c3ccccc3)c(C(=O)N3CCOCC3)c2c1
5. COc1ccc(C)cc1NC(=O)c1ccoc1C
6. Cc1cc(C)nc(SCC(=O)Oc2ccc3oc(=O)cc(C)c3c2)n1

1: 2.55; 2: 2.08; 3: -0.67; 4: 5.28; 5: 7.87; 6: 3.39

Could I get RAM network inhibition for every one of these entries?
1. CC(=O)c1c(NC(=O)C(C)C)nc(C)nc1-c1ccccc1
2. CCCc1nc(N)nc2c1C(=O)CC(C)(C)C2
3. CCn1c(N)nc2c1c(=O)n(C)c(=O)n2C
4. CCC1(C)C2(C#N)C(N)=NC(OC)(OC)C12C#N (stereo not given)
5. O=C(Nc1nnc(-c2ccc3c(c2)OCCO3)o1)c1ccc(Cc2ccccc2)cc1
6. COc1ccccc1N1CCN(Cc2cc(Br)c(O)c3ncccc23)CC1
7. COc1ccc(-c2cc(C(F)F)n3ncc(C(=O)NCCCN4CCCC4=O)c3n2)cc1

1. -0.83
2. 0.27
3. 2.67
4. 2.07
5. 4.3
6. -1.73
7. 3.32

Hello, I would appreciate it if you could give RAM network inhibition for each entry below.
1. CC(=O)c1cccc(NC2c3ccccc3C(=O)N2Cc2ccc3c(c2)OCO3)c1 (stereo not given)
2. COc1ccc(C2N(c3cc(Cl)ccc3OC)C(=O)C3CCCN32)cc1OC (stereo not given)
3. Nc1c(Br)cc(Br)c(N2CCCC2=O)c1Br
4. O=C(C1CCN(S(=O)(=O)c2ccc(F)cc2)CC1)N1CC=C(c2ccccc2)CC1

[2.2, 7.33, 0.63, 1.27]

Provide the reported RAM network inhibition of each entry below, same order.
1. Cn1c(=O)n(C)c2cc(CN3C(=O)OC(C)(C)C3(C)O)ccc21 (stereo not given)
2. CC(=O)c1ccc(OCC(C)C)c(CC(C(N)=O)C(N)=O)c1
3. O=C(c1nnc(Cc2ccc(Cl)cc2)o1)N1CCOCC1
4. N#Cc1nc(COc2ccccc2)oc1N1CCCCC1
5. COc1cccc(-c2nc(CS(=O)CC(=O)NC3CCCC3)c(C)o2)c1 (stereo not given)
6. CCOC(=O)C1CCN(C(=O)c2cc3c(-c4ccc(OC)c(OC)c4)nn(C)c3s2)CC1
7. Cc1noc(C)c1S(=O)(=O)N(CC(=O)Nc1ccc2c(c1)OCCO2)c1ccc(C(C)C)cc1
8. O=C(O)c1ccccc1C(=O)NCc1ccccc1

[4.45, -0.2, 0.99, -1.83, 1.25, 5.7, 1.99, 1.13]

// batch mode: one RAM network inhibition value per listed entry
1. O=C(NCCOC(=O)c1ccc(S(=O)(=O)N2CCOCC2)cc1)c1cccnc1
2. CC(C)CC(NS(=O)(=O)c1ccc2c(c1)oc(=O)n2C)C(=O)NC1CCCc2ccccc21 (stereo not given)

1. 2.11
2. 6.99

Required: RAM network inhibition, one value per molecule below.
1. COc1ccccc1C(=O)Nc1nnc(-c2ccc(Cl)cc2)o1
2. Cc1ccc(C2CC(c3ccc(Cl)cc3)n3nc(N)nc3N2)cc1 (stereo not given)
3. O=C(NCc1ccccc1)c1ccc2c(c1)OCCO2
4. Cc1cc(C)c(NC(=O)CSc2nnc(-c3ccncc3)n2Cc2ccco2)c(Cl)c1
5. COc1ccc(NC(=O)Nc2c(C)n(C)n(-c3ccccc3)c2=O)cc1
6. CC1CCCC(NC(=O)CN(C)S(=O)(=O)c2cccc3cccnc23)C1C (stereo not given)
7. COc1ccc(NC(=O)Nc2ccc3nccnc3c2)cc1

1. -0.25
2. 8.2
3. 0.51
4. 6.08
5. 1.34
6. 3.61
7. 3.72

I'm hoping you can list RAM network inhibition for every molecule here, please.
1. Cc1cc(C(=O)NCC2CCCO2)n(-c2ccccc2)n1 (stereo not given)
2. Cc1ccc(F)cc1NC(=O)c1c(-c2ccccc2)noc1C
3. CCOC(=O)N1CCC(NC(=O)c2ccc(CS(=O)(=O)c3ccc(OC)cc3)o2)CC1

[2.07, 2.22, 1.82]

Values from PubChem BioAssay
